Molecular target: CFTR (F508del/MF-HBE cells) (Homo sapiens, UniProt P13569, DEL508-508)
Construct: human bronchial epithelial (HBE) cells derived from CF subjects heterozygous for F508del and a minimal function CFTR mutation (F508del/MF-HBE); endogenous in cells; host or cells: Primary human bronchial epithelial cells from CF subjects (F508del/MF genotype), differentiated at an air-liquid interface
Sequence (P13569 with tags, fused parts or gaps DEL508-508): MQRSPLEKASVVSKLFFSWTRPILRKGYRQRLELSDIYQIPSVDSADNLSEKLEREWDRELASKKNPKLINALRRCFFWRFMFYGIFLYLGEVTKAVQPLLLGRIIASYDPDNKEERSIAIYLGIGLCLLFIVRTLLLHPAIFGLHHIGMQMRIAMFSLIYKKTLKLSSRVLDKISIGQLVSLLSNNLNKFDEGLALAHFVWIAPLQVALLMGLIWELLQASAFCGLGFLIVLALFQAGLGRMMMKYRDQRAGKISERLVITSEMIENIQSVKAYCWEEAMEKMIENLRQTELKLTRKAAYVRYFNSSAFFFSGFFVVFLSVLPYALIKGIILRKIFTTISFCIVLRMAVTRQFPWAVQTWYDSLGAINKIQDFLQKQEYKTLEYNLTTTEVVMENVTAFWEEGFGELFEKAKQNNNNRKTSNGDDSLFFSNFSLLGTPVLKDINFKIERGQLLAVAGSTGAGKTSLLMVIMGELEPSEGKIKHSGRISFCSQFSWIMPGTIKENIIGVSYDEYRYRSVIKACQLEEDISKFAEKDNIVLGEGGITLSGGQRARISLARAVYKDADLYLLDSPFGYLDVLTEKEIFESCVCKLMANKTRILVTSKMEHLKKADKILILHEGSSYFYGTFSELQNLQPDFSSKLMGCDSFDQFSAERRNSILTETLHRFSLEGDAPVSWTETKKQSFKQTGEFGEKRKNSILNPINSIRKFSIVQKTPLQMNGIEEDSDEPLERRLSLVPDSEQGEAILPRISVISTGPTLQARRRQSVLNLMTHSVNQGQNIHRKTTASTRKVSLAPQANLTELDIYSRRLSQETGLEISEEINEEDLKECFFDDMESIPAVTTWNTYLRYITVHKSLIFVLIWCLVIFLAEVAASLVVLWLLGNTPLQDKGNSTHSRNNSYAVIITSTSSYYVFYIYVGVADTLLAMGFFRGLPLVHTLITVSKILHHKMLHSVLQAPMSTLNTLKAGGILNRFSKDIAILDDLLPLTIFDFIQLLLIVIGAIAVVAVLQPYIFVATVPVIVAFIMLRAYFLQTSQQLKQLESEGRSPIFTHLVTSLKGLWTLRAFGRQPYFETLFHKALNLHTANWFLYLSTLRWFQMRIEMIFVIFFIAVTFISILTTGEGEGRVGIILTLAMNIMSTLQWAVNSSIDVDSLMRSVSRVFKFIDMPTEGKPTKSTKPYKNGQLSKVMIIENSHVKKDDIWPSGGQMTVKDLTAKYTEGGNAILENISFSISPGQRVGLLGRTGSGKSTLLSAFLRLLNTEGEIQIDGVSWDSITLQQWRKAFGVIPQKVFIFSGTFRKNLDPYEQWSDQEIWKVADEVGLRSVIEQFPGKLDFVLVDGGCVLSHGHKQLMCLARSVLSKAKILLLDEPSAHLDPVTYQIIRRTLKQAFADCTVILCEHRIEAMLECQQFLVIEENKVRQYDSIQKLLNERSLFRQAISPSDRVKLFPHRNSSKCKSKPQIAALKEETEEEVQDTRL
Test: Ussing chamber assay of CFTR-mediated short-circuit currents, Assay C (0.026 μM to 25 μM, 6 concentrations)
Assay type: cell-based
Settings: with 33 nM potentiator and 18 μM Tezacaftor, 20% human serum
Protocol: Ussing chamber experiments were performed using human bronchial epithelial (HBE) cells derived from CF subjects heterozygous for F508del and a minimal function CFTR mutation (F508del/MF-HBE) and cultured as previously described (Neuberger T, Burton B, Clark H, Van Goor F Methods Mol Biol 2011:741:39-54). […] The activity of the CFTR corrector compounds on the CFTR-mediated ISC was determined in Ussing chamber studies as described above. […]
Form field: EC50 (one value per entry).

// solved cases for EC50 follow
Cc1cccc(C)c1-c1nc2nc(c1C)OC[C@@H](COC(C)C)N(Cc1cnc3cc(C(C)(C)C)n(C)c3n1)C(=O)c1cccc(c1)S(=O)(=O)N2
< 1 µM
CCc1cccc(CC)c1-c1cc2nc(n1)NS(=O)(=O)c1cccc(c1)C(=O)N(Cc1cnc3oc(C(C)(C)C)cc3n1)[C@H](CC(C)(C)C)CO2
3 to 30 µM
Cc1cccc(C)c1-c1cc2nc(n1)NS(=O)(=O)c1cccc(c1)C(=O)N(Cc1cnc3cc(C4(C(F)(F)F)CC4)n(C)c3n1)[C@H](CC1(C)CC1)CO2
1 to 3 µM
Cc1cccc(C)c1-c1cc2nc(n1)NS(=O)(=O)c1cccc(c1)C(=O)N(Cc1cnc3oc(C4(C)CCC4)cc3n1)[C@H](CC1(C)CC1)CO2
3 to 30 µM
Cc1cccc(CC(C)C)c1-c1nc2nc(c1C)OC[C@@H](COC(C)C)N(Cc1cnc3oc(C(C)(C)C)cc3n1)C(=O)c1cccc(c1)S(=O)(=O)N2 (atropisomer, axis not shown)
1 to 3 µM
Cc1cccc(CC(C)(C)C)c1-c1nc2nc(c1C)OC[C@@H](CC(C)(C)C)N(Cc1cnc3oc(C(C)(C)C)cc3n1)C(=O)c1cccc(c1)S(=O)(=O)N2 (atropisomer, axis not shown)
< 1 µM
Cc1cccc(C)c1-c1cc2nc(n1)NS(=O)(=O)c1cccc(c1)C(=O)N(Cc1cnc3oc(C4CC4)cc3n1)[C@@H](C1(C(C)C)CC1)CO2 (single isomer, unassigned)
1 to 3 µM
Cc1cccc(C)c1-c1cc2nc(n1)NS(=O)(=O)c1cccc(c1)C(=O)N(Cc1cnc3cc(C(C)(C)C)n(C)c3n1)[C@H](CC(C)(C)C)CO2
< 1 µM
Cc1cccc(C)c1-c1cc2nc(n1)NS(=O)(=O)c1cccc(c1)C(=O)N(Cc1cnc3c(n1)CN(C(C)C)C3=O)[C@H](CC1(C)CC1)CO2
1 to 3 µM
Cc1cccc(C)c1-c1cc2nc(n1)NS(=O)(=O)c1cccc(c1)C(=O)N(Cc1cnc3oc(CC(C)C)cc3n1)[C@H](CC1(C)CC1)CO2
3 to 30 µM

Form field: EC50 recorded for Cc1cccc(CC(C)C)c1-c1nc2nc(c1C)OC[C@@H](CC(C)(C)C)N(Cc1cnc3cc(C(C)(C)C)n(C)c3n1)C(=O)c1cccc(c1)S(=O)(=O)N2 with CFTR (F508del/MF-HBE cells) (Homo sapiens, UniProt P13569, DEL508-508) (enter value)
< 1 µM

Form field: EC50 recorded for Cc1cccc(C)c1-c1cc2nc(n1)NS(=O)(=O)c1cccc(c1)C(=O)N(Cc1cnc3cc(C(C)(C)C)n(C)c3n1)[C@H](CC1(C)CC1)CO2 with CFTR (F508del/MF-HBE cells) (Homo sapiens, UniProt P13569, DEL508-508) (enter value)
< 1 µM

Form field: EC50 recorded for Cc1cccc(C)c1-c1cc2nc(n1)NS(=O)(=O)c1cccc(c1)C(=O)N(Cc1cnc3oc(C(C)(C)CO)cc3n1)[C@H](CC13CC(C1)C3)CO2 with CFTR (F508del/MF-HBE cells) (Homo sapiens, UniProt P13569, DEL508-508) (enter value)
3 to 30 µM

###

target: CFTR (F508del/MF-HBE cells) (Homo sapiens, UniProt P13569, DEL508-508); construct: human bronchial epithelial (HBE) cells derived from CF subjects heterozygous for F508del and a minimal function CFTR mutation (F508del/MF-HBE); endogenous in cells; host or cells: Primary human bronchial epithelial cells from CF subjects (F508del/MF genotype), differentiated at an air-liquid interface; test: Ussing chamber assay of CFTR-mediated short-circuit currents, Assay C (0.026 μM to 25 μM, 6 concentrations); format: cell-based; conditions: with 33 nM potentiator and 18 μM Tezacaftor, 20% human serum
Form field: EC50 (one value per entry).

// solved cases for EC50 follow
CCc1c2nc(nc1-c1c(C)cccc1C)NS(=O)(=O)c1cccc(c1)C(=O)N(Cc1cnc3cc(C(C)(C)C)n(C)c3n1)[C@H](COC(C)C)CO2
< 1000 nM
CCc1cccc(CC)c1-c1cc2nc(n1)NS(=O)(=O)c1cccc(c1)C(=O)N(Cc1cnc3c(CCOC)c(C(C)(C)C)n(C)c3n1)[C@H](CC(C)C)CO2
< 1000 nM

Fill blank: measured EC50 of the compound Cc1cccc(CC(C)C)c1-c1nc2nc(c1C)OC[C@@H](CC1(C)CC1)N(Cc1cnc3oc(C(C)C)cc3n1)C(=O)c1cccc(c1)S(=O)(=O)N2 (atropisomer, axis not shown) is ____.
< 1000 nM

###

biological target: CFTR (F508del/MF-HBE cells) (Homo sapiens, UniProt P13569, DEL508-508); construct: human bronchial epithelial (HBE) cells derived from CF subjects heterozygous for F508del and a minimal function CFTR mutation (F508del/MF-HBE); endogenous in cells; host or cells: Primary human bronchial epithelial cells from CF subjects (F508del/MF genotype), differentiated at an air-liquid interface; assay: Ussing chamber assay of CFTR-mediated short-circuit currents, Assay D (single concentration of 1 μM); type: cell-based; conditions: with 44 nM potentiator and 18 μM Tezacaftor, 18-24 hours, 20% human serum
property: D activity at 1 μM (%)

Cc1cccc(C)c1-c1nc2nc(c1C)OC[C@@H](CC(C)(C)C)N(Cc1nc3cc(C4(C)CC4)oc3cc1F)C(=O)c1cccc(c1)S(=O)(=O)N2
+++ (+++ is >60%)
Cc1cccc(C)c1-c1cc2nc(n1)NS(=O)(=O)c1cccc(c1)C(=O)N(Cc1cnc3oc(C(C)C)c(NC(=O)OC(C)(C)C)c3n1)[C@H](CC1(C)CC1)CO2
+++ (+++ is >60%)

###

target: CFTR (F508del/MF-HBE cells) (Homo sapiens, UniProt P13569, DEL508-508); construct: human bronchial epithelial (HBE) cells derived from CF subjects heterozygous for F508del and a minimal function CFTR mutation (F508del/MF-HBE); endogenous in cells; host or cells: Primary human bronchial epithelial cells from CF subjects (F508del/MF genotype), differentiated at an air-liquid interface; experiment: Ussing chamber assay of CFTR-mediated short-circuit currents, Assay C (0.026 μM to 25 μM, 6 concentrations); format: cell-based; conditions: with 33 nM potentiator and 18 μM Tezacaftor, 20% human serum, read-out: C Max activity (%)
Form field: Emax (one value per entry).

Cc1cccc(C)c1-c1cc2nc(n1)NS(=O)(=O)c1cccc(c1)C(=O)N(Cc1cnc3oc(-c4ccnn4C)cc3n1)[C@H](CC1(C)CC1)CO2
> 60%
Cc1cccc(CC(C)C)c1-c1nc2nc(c1C)OC[C@@H](CC1(C)CC1)N(Cc1cnc3cc(C4(C(F)(F)F)CC4)n(C)c3n1)C(=O)c1cccc(c1)S(=O)(=O)N2 (atropisomer, axis not shown)
> 60%

Fill blank: measured Emax of the compound Cc1cccc(C)c1-c1cc2nc(n1)NS(=O)(=O)c1cccc(c1)C(=O)N(Cc1cnc3oc(CC(C)C)cc3n1)[C@H](CC1(C)CC1)CO2 is ____.
> 60%

###

target: CFTR (F508del/MF-HBE cells) (Homo sapiens, UniProt P13569, DEL508-508); construct: human bronchial epithelial (HBE) cells derived from CF subjects heterozygous for F508del and a minimal function CFTR mutation (F508del/MF-HBE); endogenous in cells; host or cells: Primary human bronchial epithelial cells from CF subjects (F508del/MF genotype), differentiated at an air-liquid interface; experiment: Ussing chamber assay of CFTR-mediated short-circuit currents, Assay B (0.00001 μM to 25 μM, 12 concentrations); assay type: cell-based; conditions: with 33 nM potentiator and 18 μM Tezacaftor, 20% human serum
property: EC50

Cc1cccc(C)c1-c1nc2nc(c1C)OC[C@@H](CC(C)(C)C)N(Cc1cnc3nc(C(C)C)n(C)c3n1)C(=O)c1cccc(c1)S(=O)(=O)N2
< 1 µM
Cc1cccc(C)c1-c1cc2nc(n1)NS(=O)(=O)c1cccc(c1)C(=O)N(Cc1cnc3oc(C4CC4)cc3n1)[C@H](COC1CCCC1)CO2
3 to 30 µM
Cc1cccc(C)c1-c1cc2nc(n1)NS(=O)(=O)c1cccc(c1)C(=O)N(Cc1cnc3oc(C4CC4)cc3n1)[C@H](CC1CCC1)CO2
3 to 30 µM
Cc1cccc(C)c1-c1cc2nc(n1)NS(=O)(=O)c1cccc(c1)C(=O)N(Cc1cnc3nc(C(C)C)n(C)c3n1)[C@H](CC13CC(C1)C3)CO2
< 1 µM

Fill blank: measured EC50 of the compound Cc1cccc(C)c1-c1nc2nc(c1C)OC[C@@H](CC(C)(C)C)N(Cc1cnc3cc(C(C)(C)C)n(C)c3n1)C(=O)c1cccc(c1)S(=O)(=O)N2 is ____.
< 1 µM

Fill blank: measured EC50 of the compound Cc1cccc(C)c1-c1cc2nc(n1)NS(=O)(=O)c1cccc(c1)C(=O)N(Cc1cnc3oc(C(C)(C)C)cc3n1)[C@H](CC1(C)CC1)CO2 is ____.
1 to 3 µM

Fill blank: measured EC50 of the compound Cc1cccc(C)c1-c1cc2nc(n1)NS(=O)(=O)c1cccc(c1)C(=O)N(Cc1cnc3oc(C4CC4)cc3n1)[C@H](CCC(C)(C)C)CO2 is ____.
1 to 3 µM

Fill blank: measured EC50 of the compound Cc1cccc(C)c1-c1cc2nc(n1)NS(=O)(=O)c1cccc(c1)C(=O)N(Cc1cnc3oc(C4CC4)cc3n1)[C@H](CC1(F)CCC1)CO2 is ____.
3 to 30 µM

Fill blank: measured EC50 of the compound Cc1cccc(C)c1-c1cc2nc(n1)NS(=O)(=O)c1cccc(c1)C(=O)N(Cc1cnc3oc(C4CC4)cc3n1)[C@H](CC13CC(C1)C3)CO2 is ____.
1 to 3 µM

Fill blank: measured EC50 of the compound Cc1cccc(C)c1-c1cc2nc(n1)NS(=O)(=O)c1cccc(c1)C(=O)N(Cc1nc3cc(C(C)C)oc3cc1F)[C@H](CC13CC(C1)C3)CO2 is ____.
1 to 3 µM
